Cited source for all entries: patent US20130323786A1

// reported Plateau Ratio per item
- TARGET_ENTITY: T1, LINGO-Fc (human, UniProt Q96FE5 40-538, limits assumed)
- T1 construct: not shown: Fc part
- T1 sequence: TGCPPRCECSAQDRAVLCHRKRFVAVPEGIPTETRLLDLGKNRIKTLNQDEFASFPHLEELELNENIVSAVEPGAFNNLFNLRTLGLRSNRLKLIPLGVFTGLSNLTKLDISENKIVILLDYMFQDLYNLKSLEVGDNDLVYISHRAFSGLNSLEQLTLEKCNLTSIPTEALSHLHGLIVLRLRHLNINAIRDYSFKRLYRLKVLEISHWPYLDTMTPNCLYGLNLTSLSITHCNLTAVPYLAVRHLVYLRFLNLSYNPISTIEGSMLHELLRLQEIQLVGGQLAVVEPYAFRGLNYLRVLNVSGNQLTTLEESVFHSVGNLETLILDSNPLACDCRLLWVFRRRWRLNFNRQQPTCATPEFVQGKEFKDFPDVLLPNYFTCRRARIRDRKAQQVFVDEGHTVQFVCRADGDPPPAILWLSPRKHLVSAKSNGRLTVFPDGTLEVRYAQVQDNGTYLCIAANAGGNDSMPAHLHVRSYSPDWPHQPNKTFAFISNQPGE
- ASSAY_NAME: direct ELISA on LINGO-Fc; OD450 at saturation relative to Li33;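 also: binding to plate-coated LINGO-Fc read by OD450, with the value at maximal saturation divided by the corresponding Li33 value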

[
  {
    "BINDER": "Li33 variant I57H (SEQ ID NO:162) (antibody, V domains shown, unchanged chain from WT Li33) VH: EVQLLESGGGLVQPGGSLRLSCAASGFTFSIYPMFWVRQAPGKGLEWVSWIGPSGGHTKYADSVKGRFTISRDNSKNTLYLQMNSLRAEDTATYYCAREGHNDWYFDLWGRGTLVTVSS VL: DIQMTQSPGTLSLSPGERATLSCRASQSVSSYLAWYQQKPGQAPRLLIYDASNRATGIPARFSGSGSGTEFTLTISSLQSEDFAVYYCQQYDKWPLTFGGGTKVEIKR",
    "Plateau Ratio": "1.07 ratio"
  },
  {
    "BINDER": "Li33 variant P53L (SEQ ID NO:151) (antibody, V domains shown, unchanged chain from WT Li33) VH: EVQLLESGGGLVQPGGSLRLSCAASGFTFSIYPMFWVRQAPGKGLEWVSWIGLSGGITKYADSVKGRFTISRDNSKNTLYLQMNSLRAEDTATYYCAREGHNDWYFDLWGRGTLVTVSS VL: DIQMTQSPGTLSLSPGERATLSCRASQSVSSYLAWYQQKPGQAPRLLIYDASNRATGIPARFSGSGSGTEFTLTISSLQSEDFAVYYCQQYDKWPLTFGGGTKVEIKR",
    "Plateau Ratio": "1.13 ratio"
  },
  {
    "BINDER": "WT Li33 (Table 11) (antibody, V domains shown) VH: EVQLLESGGGLVQPGGSLRLSCAASGFTFSIYPMFWVRQAPGKGLEWVSWIGPSGGITKYADSVKGRFTISRDNSKNTLYLQMNSLRAEDTATYYCAREGHNDWYFDLWGRGTLVTVSS VL: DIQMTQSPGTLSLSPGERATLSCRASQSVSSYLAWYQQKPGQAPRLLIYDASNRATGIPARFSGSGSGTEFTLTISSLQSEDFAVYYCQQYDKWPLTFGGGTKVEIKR",
    "Plateau Ratio": "0.91 ratio"
  }
]
